biological target: MAP Kinase Pathway (GST-MEK / GST-MAPK); test: Cascade Assay for Inhibitors of the MAP Kinase Pathway (APK Assay); settings: Table 1; 50 μM ATP, 20 minutes
pIC50: −log10 of the molar value. Counter-ions that a name gives are not always drawn.
PARAMETER_MEASURED: pIC50

Worked cases, pIC50 given:
COc1ccc2c(c1)ncn2-c1ccccc1 [Example 13, Hydrochloride]
5.30
c1ccc(-n2cnc3cc(OCCN4CCOCC4)ccc32)cc1 [Example 38, Dihydrochloride]
4.35
CN(C)CCCOc1ccc2c(c1)ncn2-c1ccccc1 [Example 37, Dihydrochloride]
4.57

(P) c1ccc(-n2cnc3cc(OCCCN4CCOCC4)ccc32)cc1 [Example 39, Dihydrochloride]
(Q) COc1ccc2c(c1)ncn2-c1ccc(N)cc1 [Example 45, Dihydrochloride]
Data request: Could you tell me which of P and Q has the lower pIC50 reading? Record your answer as the label of the chosen record.
Data returned: Q
(Q: 4.43, P: 4.74)
